Target: S100A3
Test: FP; direct
readoutType: pKd
Numbers only, as −log10 of the molar value.

1) VLQTWLQDLLRRGLVRAAQ [TRPM4 (129-147) peptide]
6.04

Batch lookup, pKd per entry.
1. RRLLFYKYVYKR [NCX1 (254-265) peptide]
2. RKLQRELEDATETADAMNREVSSLKNKLRRGDLPFVVPRRMARK [NMIIA (1894-1937) peptide]

[4.60, 5.26]
